Test system: NCI-H1793
Assay: relative viability (nuclei count vs DMSO), 5 days (fraction); higher = more cells survive
Conditions: first compound 0.1 µM
Provide the recorded relative viability for the entries that follow.
API note: the answer field is a bare number with no unit suffix.

According to the records, this compound O=c1cc(N2CCOCC2)oc2c(-c3cccc4c3sc3ccccc34)cccc12 + CCNC(=O)c1noc(-c2cc(C(C)C)c(O)cc2O)c1-c1ccc(CN2CCOCC2)cc1 [Luminespib] (partner 0.01 µM) displays relative viability of 0.173

According to the records, this compound O=c1cc(N2CCOCC2)oc2c(-c3cccc4c3sc3ccccc34)cccc12 + CS(=O)(=O)N1CCN(Cc2cc3nc(-c4cccc5[nH]ncc45)nc(N4CCOCC4)c3s2)CC1 [Pictilisib] (partner 1 µM) displays relative viability of 0.336

According to the records, this compound O=c1cc(N2CCOCC2)oc2c(-c3cccc4c3sc3ccccc34)cccc12 + Cc1cc(Nc2cc(N3CCN(C)CC3)nc(Sc3ccc(NC(=O)C4CC4)cc3)n2)n[nH]1 [Tozasertib] (partner 0.1 µM) displays relative viability of 0.324

According to the records, this compound CCN(CC)CCCCNc1ncc2cc(-c3cc(OC)cc(OC)c3)c(NC(=O)NC(C)(C)C)nc2n1 + Nc1nc2[nH]cc(CCc3ccc(C(=O)N[C@@H](CCC(=O)O)C(=O)O)cc3)c2c(=O)[nH]1 [Pemetrexed] (partner 0.2 µM) displays relative viability of 0.988

====

Tested on: SW 900
Assay: relative viability (nuclei count vs DMSO), 5 days (fraction); higher = more cells survive
Conditions: first compound 0.2 µM
Measured Parameter: relative viability
API note: the answer field is a bare number with no unit suffix.

According to the records, this compound COCC1(CO)C(=O)C2CCN1CC2 (centres undefined) [PRIMA-1MET] + Nc1ncn([C@H]2C[C@H](O)[C@@H](CO)O2)c(=O)n1 [Decitabine] (partner 2 µM) displays relative viability of 0.402

According to the records, this compound COCC1(CO)C(=O)C2CCN1CC2 (centres undefined) [PRIMA-1MET] + CC(=O)c1c(C)c2cnc(Nc3ccc(N4CCNCC4)cn3)nc2n(C2CCCC2)c1=O [Palbociclib] (partner 0.5 µM) displays relative viability of 0.601

According to the records, this compound COCC1(CO)C(=O)C2CCN1CC2 (centres undefined) [PRIMA-1MET] + CC(=O)Nc1cccc(-n2c(=O)n(C3CC3)c(=O)c3c(Nc4ccc(I)cc4F)n(C)c(=O)c(C)c32)c1 [Trametinib] (partner 0.02 µM) displays relative viability of 0.615

According to the records, this compound COCC1(CO)C(=O)C2CCN1CC2 (centres undefined) [PRIMA-1MET] + N=C(N)NC(=N)NCCc1ccccc1 [Phenformin] (partner 250 µM) displays relative viability of 0.665

====

Provide the recorded relative viability for the entries that follow.
System: NCI-H460
Test: relative viability (nuclei count vs DMSO), 5 days (fraction); higher = more cells survive
Conditions: first compound 0.01 µM
API note: the answer field is a bare number with no unit suffix.

According to the records, this molecule O=c1cc(N2CCOCC2)oc2c(-c3cccc4c3sc3ccccc34)cccc12 + CC(C)C[C@H](NC(=O)[C@H](Cc1ccccc1)NC(=O)c1cnccn1)B(O)O [Bortezomib] (partner 0.002 µM) displays relative viability of 1.01

According to the records, this molecule O=c1cc(N2CCOCC2)oc2c(-c3cccc4c3sc3ccccc34)cccc12 + CC1(C)CCC(c2ccc(Cl)cc2)=C(CN2CCN(c3ccc(C(=O)NS(=O)(=O)c4ccc(N[C@H](CCN5CCOCC5)CSc5ccccc5)c(S(=O)(=O)C(F)(F)F)c4)cc3)CC2)C1 [Navitoclax] (partner 0.5 µM) displays relative viability of 1.06

According to the records, this molecule CCN(CC)CCCCNc1ncc2cc(-c3cc(OC)cc(OC)c3)c(NC(=O)NC(C)(C)C)nc2n1 + N=C(N)NC(=N)NCCc1ccccc1 [Phenformin] (partner 250 µM) displays relative viability of 0.536

====

Provide the recorded relative viability for the entries that follow.
Tested on: NCI-H358
Test: relative viability (nuclei count vs DMSO), 5 days (fraction); higher = more cells survive
Details: first compound 0.253 µM
API note: the answer field is a bare number with no unit suffix.

According to the records, this compound COc1nc(C)cnc1NS(=O)(=O)c1cccnc1-c1ccc(-c2nnco2)cc1 [Zibotentan] + COc1cc2c(Oc3ccc(NC(=O)C4(C(=O)Nc5ccc(F)cc5)CC4)cc3F)ccnc2cc1OCCCN1CCOCC1 [Foretinib] (partner 0.25 µM) displays relative viability of 0.485

According to the records, this compound O=c1cc(-c2cccc3c2Sc2ccccc2S3)oc(N2CCOCC2)c1 + Cc1nc(Nc2ncc(C(=O)Nc3c(C)cccc3Cl)s2)cc(N2CCN(CCO)CC2)n1 [Dasatinib] (partner 0.075 µM) displays relative viability of 0.163

According to the records, this compound COc1nc(C)cnc1NS(=O)(=O)c1cccnc1-c1ccc(-c2nnco2)cc1 [Zibotentan] + O=C(c1cc(Cc2n[nH]c(=O)c3ccccc23)ccc1F)N1CCN(C(=O)C2CC2)CC1 [Olaparib] (partner 8 µM) displays relative viability of 0.323

According to the records, this compound O=c1cc(-c2cccc3c2Sc2ccccc2S3)oc(N2CCOCC2)c1 + C[C@]1(O)C[C@@H](c2nc(-c3ccc4ccc(-c5ccccc5)nc4c3)c3c(N)nccn32)C1 [Linsitinib] (partner 1 µM) displays relative viability of 0.665

According to the records, this compound COc1nc(C)cnc1NS(=O)(=O)c1cccnc1-c1ccc(-c2nnco2)cc1 [Zibotentan] + COc1cccc2cc(-c3nc([C@H]4CC[C@H](C(=O)O)CC4)n4ncnc(N)c34)[nH]c12 [OSI-027] (partner 0.5 µM) displays relative viability of 0.531

According to the records, this compound O=c1cc(-c2cccc3c2Sc2ccccc2S3)oc(N2CCOCC2)c1 + O=C(c1cc(Cc2n[nH]c(=O)c3ccccc23)ccc1F)N1CCN(C(=O)C2CC2)CC1 [Olaparib] (partner 8 µM) displays relative viability of 0.676

According to the records, this compound COc1nc(C)cnc1NS(=O)(=O)c1cccnc1-c1ccc(-c2nnco2)cc1 [Zibotentan] + Cc1nc(Nc2ncc(C(=O)Nc3c(C)cccc3Cl)s2)cc(N2CCN(CCO)CC2)n1 [Dasatinib] (partner 0.075 µM) displays relative viability of 0.152

====

Test system: LXF-289
Test: relative viability (nuclei count vs DMSO), 5 days (fraction); higher = more cells survive
Details: first compound 0.2 µM
# yes = relative viability below 0.9 (exclusive); no = relative viability at/above 0.9

IN: Check if relative viability falls below 0.9 for COCC1(CO)C(=O)C2CCN1CC2 (stereo not given) [PRIMA-1MET] + O=C(c1cc(Cc2n[nH]c(=O)c3ccccc23)ccc1F)N1CCN(C(=O)C2CC2)CC1 [Olaparib] (partner 8 µM) .
OUT: no

IN: Check if relative viability falls below 0.9 for COCC1(CO)C(=O)C2CCN1CC2 (stereo not given) [PRIMA-1MET] + CC(=O)c1c(C)c2cnc(Nc3ccc(N4CCNCC4)cn3)nc2n(C2CCCC2)c1=O [Palbociclib] (partner 0.5 µM) .
OUT: yes

IN: Check if relative viability falls below 0.9 for COCC1(CO)C(=O)C2CCN1CC2 (stereo not given) [PRIMA-1MET] + O=C(CCCCCCC(=O)Nc1ccccc1)NO [Vorinostat] (partner 1 µM) .
OUT: yes

IN: Check if relative viability falls below 0.9 for COCC1(CO)C(=O)C2CCN1CC2 (stereo not given) [PRIMA-1MET] + Nc1nc2[nH]cc(CCc3ccc(C(=O)N[C@@H](CCC(=O)O)C(=O)O)cc3)c2c(=O)[nH]1 [Pemetrexed] (partner 0.2 µM) .
OUT: no

====

Test system: A549
Test: relative viability (nuclei count vs DMSO), 5 days (fraction); higher = more cells survive
Conditions: first compound 2 µM
Provide the recorded relative viability for the entries that follow.
API note: the answer field is a bare number with no unit suffix.

According to the records, this compound COCC1(CO)C(=O)C2CCN1CC2 (stereo not given) [PRIMA-1MET] + COc1cc2c(Oc3ccc(NC(=O)C4(C(=O)Nc5ccc(F)cc5)CC4)cc3F)ccnc2cc1OCCCN1CCOCC1 [Foretinib] (partner 0.25 µM) displays relative viability of 1.07

According to the records, this compound COCC1(CO)C(=O)C2CCN1CC2 (stereo not given) [PRIMA-1MET] + C[C@@H](Oc1cc(-c2cnn(C3CCNCC3)c2)cnc1N)c1c(Cl)ccc(F)c1Cl [Crizotinib] (partner 1 µM) displays relative viability of 0.813

According to the records, this compound COCC1(CO)C(=O)C2CCN1CC2 (stereo not given) [PRIMA-1MET] + CC1(C)CCC(c2ccc(Cl)cc2)=C(CN2CCN(c3ccc(C(=O)NS(=O)(=O)c4ccc(N[C@H](CCN5CCOCC5)CSc5ccccc5)c(S(=O)(=O)C(F)(F)F)c4)cc3)CC2)C1 [Navitoclax] (partner 0.5 µM) displays relative viability of 1.23

According to the records, this compound COCC1(CO)C(=O)C2CCN1CC2 (stereo not given) [PRIMA-1MET] + Cc1nc(NC(=O)N2CCC[C@H]2C(N)=O)sc1-c1ccnc(C(C)(C)C(F)(F)F)c1 [Alpelisib] (partner 2 µM) displays relative viability of 0.861

According to the records, this compound COCC1(CO)C(=O)C2CCN1CC2 (stereo not given) [PRIMA-1MET] + CS(=O)(=O)CCNCc1ccc(-c2ccc3ncnc(Nc4ccc(OCc5cccc(F)c5)c(Cl)c4)c3c2)o1 [Lapatinib] (partner 2 µM) displays relative viability of 1.05
